Ref: ChEMBL document CHEMBL1772968

tested on: Staphylococcus aureus; assay: Antibacterial activity against Staphylococcus aureus by broth microdilution method; assay type: functional
quantity_name: MIC (µg/mL)
Give the value, in units of µg/mL, as a plain number.

molecule: CCCCCCCCCC(=O)O
readout_unit: µg/mL
MIC: 250

molecule: CCCCCCCCCCCC(=O)O [DODECANOATE]
readout_unit: µg/mL
MIC: 250

Here is another molecule to look at.
Query MIC on Staphylococcus aureus for "CCCCCCCCCCCCCC(=O)O" 250

* * *

test system: Staphylococcus aureus; test: Antibacterial activity against methicillin-resistant Staphylococcus aureus ATCC 43330 by broth microdilution method; format: functional
Below: a set of entries, each annotated with reported MIC.
Quick note: give the figure in µg/mL, leave out the unit.

Recorded MIC, per entry:
given_smiles: CCCCCCCCCCCCCCCCCCCOC(=O)NC(C)(CCC(=O)O)CCC(=O)O
readout_unit: µg/mL
MIC: 2.2

given_smiles: CCCCCCCCCCCCCCCCCCCCCCC(=O)NC(CCC(=O)O)(CCC(=O)O)CCC(=O)O
readout_unit: µg/mL
MIC: 4.5

given_smiles: CCCCCCCCCCCCCCCCCCCCCNC(=O)NC(CCC(=O)O)(CCC(=O)O)CCC(=O)O
readout_unit: µg/mL
MIC: 4.5

given_smiles: CCCCCCCCCCCCCCCCCCCCC(=O)NC(CCC(=O)O)(CCC(=O)O)CCC(=O)O
readout_unit: µg/mL
MIC: 45

given_smiles: CCCCCCCCCCCCCCCCCCCCCOC(=O)NC(C)(CCC(=O)O)CCC(=O)O
readout_unit: µg/mL
MIC: 2.2

// lookup MIC for "CCCCCCCCCCCCCCCCCCCCCCCOC(=O)NC(CCC(=O)O)(CCC(=O)O)CCC(=O)O" 4.5

Can you handle "CCCCCCCCCCCCCCCCCCCCC(=O)NC(C)(CCC(=O)O)CCC(=O)O" next? 2.2

Okay, and "CCCCCCCCCCCCCCCCCCCCCCC(=O)NC(C)(CCC(=O)O)CCC(=O)O" ? 1.7

* * *

system: Staphylococcus aureus; assay: Antibacterial activity against methicillin-resistant Staphylococcus aureus ATCC 43330 by broth microdilution method; assay type: functional
quantity_name: MIC (µg/mL)
Output spec: scalar in µg/mL, unitless text.

compound: CN[C@H](CC(C)C)C(=O)N[C@H]1C(=O)N[C@@H](CC(N)=O)C(=O)N[C@H]2C(=O)N[C@H]3C(=O)N[C@H](C(=O)N[C@H](C(=O)O)c4cc(O)cc(O)c4-c4cc3ccc4O)[C@H](O)c3ccc(c(Cl)c3)Oc3cc2cc(c3O[C@@H]2O[C@H](CO)[C@@H](O)[C@H](O)[C@H]2O[C@H]2C[C@](C)(N)[C@H](O)[C@H](C)O2)Oc2ccc(cc2Cl)[C@H]1O [VANCOMYCIN]
quantity_name: MIC
endpoint_result: 0.25

Endpoint output: MIC of "CCCCCCCCCCCCCCCCCCCCCCCNC(=O)NC(CCC(=O)O)(CCC(=O)O)CCC(=O)O" . Value? 6.8

What do we get for "CCCCCCCCCCCCCCCCCCCCCOC(=O)NC(CCC(=O)O)(CCC(=O)O)CCC(=O)O" ? 4.5
